System: Ruminococcus gnavus DSM 108212
Assay info: fold change of 2-Phenylethylamine concentration vs plate DMSO controls (fold change (ratio)); higher = more amine produced, active = hit call of the paper (significant change in both replicates, either direction)
Run conditions: incubation time: 27 h, anaerobic, 37 °C
Where a name gives a salt, the structure may show the parent alone.
Classify as follows. Reported fold change of 2-Phenylethylamine concentration greater than or equal to 1: yes (1). Reported fold change of 2-Phenylethylamine concentration below: no (0).

Assess whether reported fold change of 2-Phenylethylamine concentration for CC(=O)OC(C)OC(=O)C(C)c1ccc(-c2ccccc2)c(F)c1 (stereo not drawn) [Flurbiprofen axetil] (20 µM) sits at 1 or higher.
yes (1)

Assess whether reported fold change of 2-Phenylethylamine concentration for O=C(Nc1ccccc1)OCC(CN1CCCCC1)OC(=O)Nc1ccccc1 (stereo not drawn) [Diperodon hydrochloride] (20 µM) sits at 1 or higher.
no (0)

Assess whether reported fold change of 2-Phenylethylamine concentration for CC(=O)c1ccc2c(c1)N(CCCN(C)C)c1ccccc1S2 [Acetopromazine maleate salt] (20 µM) sits at 1 or higher.
yes (1)

Assess whether reported fold change of 2-Phenylethylamine concentration for CCCOc1cc(N)ccc1C(=O)OCCN(CC)CC [Propoxycaine hydrochloride] (20 µM) sits at 1 or higher.
yes (1)

Assess whether reported fold change of 2-Phenylethylamine concentration for Nc1nc2ccc(OC(F)(F)F)cc2s1 [Riluzole hydrochloride] (20 µM) sits at 1 or higher.
no (0)

Assess whether reported fold change of 2-Phenylethylamine concentration for NS(=O)(=O)c1cc(C2(O)NC(=O)c3ccccc32)ccc1Cl (stereo not drawn) [Chlorthalidone] (20 µM) sits at 1 or higher.
yes (1)

Just for reference, the supplement of paper PMC12494721 is where these values come from.
